Taken from PubChem BioAssay (NCATS).

Biological target: Peroxisome proliferator-activated receptor delta (Homo sapiens) (UniProt Q03181)
Sequence (Q03181 whole entry, looked up): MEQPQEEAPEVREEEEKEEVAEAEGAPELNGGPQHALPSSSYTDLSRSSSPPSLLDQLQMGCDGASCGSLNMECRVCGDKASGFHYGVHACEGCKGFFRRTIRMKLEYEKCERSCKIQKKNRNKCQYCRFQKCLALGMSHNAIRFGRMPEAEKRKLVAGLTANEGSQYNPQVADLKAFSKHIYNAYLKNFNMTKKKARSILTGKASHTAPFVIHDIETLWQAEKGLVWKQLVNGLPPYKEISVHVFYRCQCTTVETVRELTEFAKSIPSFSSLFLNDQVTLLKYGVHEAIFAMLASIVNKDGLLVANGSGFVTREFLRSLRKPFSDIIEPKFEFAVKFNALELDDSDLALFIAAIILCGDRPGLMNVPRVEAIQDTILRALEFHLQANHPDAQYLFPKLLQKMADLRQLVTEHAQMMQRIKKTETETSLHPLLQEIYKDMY
Assay: qHTS assay for small molecule antagonists of peroxisome proliferator-activated receptor delta signaling (AID 588535)
Settings: HEK293T PPARd-UAS-bla, beta-lactamase FRET ratio, 18 h; series mostly up to 76.7 µM
Inconclusive results are not listed. The source made the active and inactive calls. Calls follow the shape of the dose curve; as a rule, active = well fitted inhibition curve with a large enough effect in the signal ratio, with a control signal flat (not every such curve was filed as active); inconclusive = small, poorly fitted or top-dose-only effect, or effect the other way, or a change in a side signal; inactive = no such curve, though single readings can be large or run the other way; the % refers to the signal ratio.

Substance Smiles: Nc1ccc(O)c([N+](=O)[O-])c1
outcome: inactive

Substance Smiles: S=c1[nH]c2ccccc2s1
outcome: inactive

Substance Smiles: O=C(O)c1cc(O)c(O)c(O)c1
outcome: inactive

* * *

Experiment: qHTS for differential inhibitors of proliferation of Plasmodium falciparum line GB4 (AID 1816);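 also: parasite growth measured after 72 h incubation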
Settings: Plasmodium falciparum GB4 proliferation inhibition; series mostly up to 28.7 µM
Results filed as inconclusive are left out. Active and inactive are the calls of the source. Calls follow the shape of the dose curve; as a rule, active = well fitted curve in the direction sought with a large enough effect; inconclusive = small, poorly fitted or top-dose-only effect, or another doubt; inactive = no such curve, though single readings can be large or run the other way.
// one of yes (1) for active, no (0) for inactive, no free text

Worked examples follow.
Compound: CC(=O)N[C@H](C(=O)O)C(C)(C)SN=O
Assigned Class: no (0)
//
Compound: CN1CCc2cc(O)c(O)cc2C(c2ccccc2)C1 (stereo not drawn)
Assigned Class: yes (1)
//
Compound: CN1CCc2ccccc2Cc2[nH]c3ccccc3c2CC1
Assigned Class: yes (1)

Tell me the assay call for O=C(O)c1cc([N+](=O)[O-])ccc1NCCCc1ccccc1 please. no (0)
